B1: TRIB1 (parent)
chain: SYVRSRKRLREEEAARLFKQIVSA

Variants of: B1
TEST_NAME: protein stability index of a GFP-peptide fusion (GPS, HEK-293T) (PSI 1-6); higher = more stable;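 further: lentivirally expressed fusions sorted by FACS into six bins by GFP to DsRed ratio, PSI derived from sequencing read proportions per bin multiplied by bin number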
CONDITION: c terminus: a fixed tail appended
Assign MET to entries whose protein stability index meets or exceeds 2; assign NOT MET to the rest.

| VARIANT_DESCRIPTION | DISCRETE_LABEL |
| --- | --- |
| L9M | MET |
| R6N | NOT MET |
| S5C | NOT MET |
| Y2A | MET |
| R4M | MET |
| F18R | MET |
| V22G | MET |
| F18P | MET |
| R8M | NOT MET |
| Q20H | NOT MET |
| R4C | NOT MET |
| E13I | MET |
| K19C | MET |
| A24C | MET |
| Y2I | NOT MET |
| E11S | MET |
| K19E | MET |
| I21R | MET |
| L17V | MET |
| S5I | NOT MET |
| A15T | MET |
| I21F | MET |
| K7H | NOT MET |
| R16Y | MET |
| K7A | MET |
| A24S | MET |
| S23H | NOT MET |
| R16K | MET |
| E13D | NOT MET |
| E13H | MET |
| S23K | MET |
| K19D | MET |
| S5T | MET |
| Q20T | MET |
| S5A | NOT MET |
| Q20E | MET |
| R6H | MET |
| R6Y | MET |
| R16Q | MET |
